Tested on: NMuMG cells
procedure_details: High-content microscopy EMT screen in TGFβ-treated NMuMG cells (FA, SF, FN, cell count)
Format: cell-based, murine
measurement_conditions: NMuMG; cell count decreased by 50% compared to DMSO control; read-out: Tox IC50
pIC50: −log10 of the molar value.
pIC50 values for the molecules below.

For orientation, consider the following solved cases.
molecule	reading
C[C@@H](N)[C@H]1CC[C@H](C(=O)Nc2ccncc2)CC1.Cl.Cl [Y-27632 2HCl]	< 4.60
Cc1ccc2c(c1)C(=O)C1(O)CCN(c3ccccc3)C1=N2 (stereo not shown)	< 5.29
Cc1cccc(-c2[nH]c(C(C)(C)C)nc2-c2ccc3nccnc3c2)n1	< 5.52

Now look at this entry.
Need pIC50, item Cc1cccc(-c2[nH]ncc2-c2ccc3ncccc3n2)n1
< 5.52

----------
Test system: NMuMG cells
procedure_details: High-content microscopy EMT screen in TGFβ-treated NMuMG cells (FA, SF, FN, cell count)
Format: cell-based, murine
measurement_conditions: Mus musculus, 96 h; NMuMG, TGFβ1 2 ng/ml plus compound, 4 days; parameter decreased by 50%; read-out: FA IC50 (focal adhesion formation)
pIC50 values for the compounds below.
Interpret pIC50 as the negative base-10 log of the concentration measured in mol/L.

For orientation, consider the following solved cases.
compound	target_desc	pIC50
CCn1c(-c2nonc2N)nc2cncc(C(=O)N3CC[C@H](N)C3)c21 [SB-772077B]	NMuMG cells	7.29
O=c1[nH]c(=O)n([C@H]2C[C@H](O)[C@@H](CO)O2)cc1Br [5-Bromo-2′-deoxyuridine]	NMuMG cells	6.14

Kindly state the measured pIC50 obtained for CC1=C(C(=O)Nc2cc3cn[nH]c3cc2F)C(c2ccc(C(F)(F)F)cc2)CC(=O)N1 (stereo not drawn) [GSK429286A] with NMuMG cells.
6.90

----------
target_desc: TGFBR1 (Homo sapiens)
Sequence (P36897 34-503): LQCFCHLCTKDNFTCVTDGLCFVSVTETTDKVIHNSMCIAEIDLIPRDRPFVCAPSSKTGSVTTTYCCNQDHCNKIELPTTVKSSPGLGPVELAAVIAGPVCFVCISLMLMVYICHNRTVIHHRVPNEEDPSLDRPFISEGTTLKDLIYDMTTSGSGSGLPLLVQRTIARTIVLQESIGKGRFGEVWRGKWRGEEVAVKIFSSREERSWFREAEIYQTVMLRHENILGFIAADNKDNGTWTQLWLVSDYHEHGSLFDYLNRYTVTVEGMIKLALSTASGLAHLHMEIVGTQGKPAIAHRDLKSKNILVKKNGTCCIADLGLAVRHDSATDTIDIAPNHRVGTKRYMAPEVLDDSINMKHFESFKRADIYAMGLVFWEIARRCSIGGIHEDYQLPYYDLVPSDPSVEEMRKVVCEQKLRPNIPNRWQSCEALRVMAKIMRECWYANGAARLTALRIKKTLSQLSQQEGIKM
procedure_details: Biochemical kinase profiling (33PanQinase radiometric assay)
pIC50: −log10 of the molar value.
quantity: pIC50

For orientation, consider the following solved cases.
compound	pIC50
CCN1CCN(c2ccc(Nc3cc(N(C)C(=O)Nc4c(Cl)c(OC)cc(OC)c4Cl)ncn3)cc2)CC1 [BGJ398]	< 5.00
COCCOc1ccc2c(c1)ncn2-c1ccc2cccc(N3CCC(N)CC3)c2n1 [CP673451]	< 5.00

Need pIC50, item CCN(CC)CCCCNc1ncc2cc(-c3cc(OC)cc(OC)c3)c(NC(=O)NC(C)(C)C)nc2n1 [PD-173074]
< 5.00

The reported measurements were obtained from paper PMC5041959.
